assay type: in vivo, human; conditions: human, plasma, oral, 200 mg, AUC0–∞,obs, liquid dispersion, single 200 mg dose, fasted, adjusted geometric mean
measurement label: AUC(0-inf) (µM·h)
Write the answer as a number in µM·h, unit excluded.

**Q:** # query: AUC(0-inf) of entry COc1cc(C(=O)NC2CCN(C)CC2)c(F)cc1Nc1ncc(C(F)(F)F)c(Oc2cccc3c2C(=O)N(C)C3)n1 [BI 853520]
**A:** 31.5

* * *

type: in vivo, human; conditions: human, plasma, oral, 200 mg
measurement label: Cmax (nM)
Write the answer as a number in nM, unit excluded.

**Q:** # query: Cmax of entry COc1cc(C(=O)NC2CCN(C)CC2)c(F)cc1Nc1ncc(C(F)(F)F)c(Oc2cccc3c2C(=O)N(C)C3)n1 [BI 853520]
**A:** 1870

* * *

assay type: in vivo, human; conditions: human, plasma, oral, 200 mg, t½, tablet, single 200 mg dose, fasted, geometric mean [coefficient of variation (%)]
measurement label: half-life (h)
Write the answer as a number in h, unit excluded.

**Q:** # query: half-life of entry COc1cc(C(=O)NC2CCN(C)CC2)c(F)cc1Nc1ncc(C(F)(F)F)c(Oc2cccc3c2C(=O)N(C)C3)n1 [BI 853520]
**A:** 19.5

* * *

format: in vivo, human; details: human, plasma, oral, 200 mg, Cmax, tablet, single 200 mg dose, fasted, adjusted geometric mean
measurement label: Cmax (nM)
Write the answer as a number in nM, unit excluded.

**Q:** # query: Cmax of entry COc1cc(C(=O)NC2CCN(C)CC2)c(F)cc1Nc1ncc(C(F)(F)F)c(Oc2cccc3c2C(=O)N(C)C3)n1 [BI 853520]
**A:** 1720

* * *

format: in vivo, human; conditions: fed, single 200 mg tablet, plasma, adjusted geometric mean
measurement label: Cmax (nM)
Write the answer as a number in nM, unit excluded.

**Q:** # query: Cmax of entry COc1cc(C(=O)NC2CCN(C)CC2)c(F)cc1Nc1ncc(C(F)(F)F)c(Oc2cccc3c2C(=O)N(C)C3)n1 [BI 853520]
**A:** 1640

* * *

format: in vivo, human; details: human, plasma, oral, 200 mg, Cmax, liquid dispersion, single 200 mg dose, fasted, adjusted geometric mean
measurement label: Cmax (nM)
Write the answer as a number in nM, unit excluded.

**Q:** # query: Cmax of entry COc1cc(C(=O)NC2CCN(C)CC2)c(F)cc1Nc1ncc(C(F)(F)F)c(Oc2cccc3c2C(=O)N(C)C3)n1
**A:** 1610
